assay: Biodistribution of 14C-CA4P following intravitreal injection; format: in vivo, New Zealand rabbits; settings: retina; 10 mg/ml intravitreal
property_name: Cmax (µM)
Quick reminder: number only, in µM, skip the unit.

Report Cmax for COc1ccc(/C=C\c2cc(OC)c(OC)c(OC)c2)cc1OP(=O)([O-])[O-].[Na+].[Na+] [CA4P, combretastatin A4 disodium phosphate] please. 1980

---

Assay: Biodistribution of 14C-CA4P following topical administration of a solution formulation
Assay type: in vivo, New Zealand rabbits
Conditions: choroid; 1% topical solution
Description: ^14C-CA4P (OXiGENE Inc., Watertown, Mass.) was resuspended in 100 ul volume of saline solution and injected with a 30 G needle into the right eyes of anesthesized male New Zealand rabbits (4 months old, 1.8-2.5 kg, n=3 per sample). Three different concentrations of ^14C-CA4P were tested (1, 10, 100 mg/ml) corresponding to doses of 1, 5, and 5 uCi of applied radioactivity respectively. A blank control group was also included. Rabbits were anaesthetized at 1, 6, 24, and 48 hours for blood sampling. […]
property_name: Cmax (nM)
The answer is to be given in nM; state only the numeric part.

Which Cmax is listed for COc1ccc(/C=C\c2cc(OC)c(OC)c(OC)c2)cc1OP(=O)([O-])[O-].[Na+].[Na+] [CA4P, combretastatin A4 disodium phosphate] ? 870

---

assay: Biodistribution of 14C-CA4P following sub-Tenon's injection; assay type: in vivo, New Zealand rabbits; details: choroid; 1 mg/ml sub-Tenon's
property_name: Cmax (nM)
Give a bare numeral; the unit nM is implied.

Can you share its Cmax? I mean this molecule: COc1ccc(/C=C\c2cc(OC)c(OC)c(OC)c2)cc1OP(=O)([O-])[O-].[Na+].[Na+] [CA4P, combretastatin A4 disodium phosphate] 1200

---

assay: Biodistribution of 14C-CA4P following intravitreal injection; type: in vivo, New Zealand rabbits; conditions: plasma; 100 mg/ml intravitreal
property_name: Cmax (nM)
# output: bare number, implied unit nM

Give the measured Cmax of COc1ccc(/C=C\c2cc(OC)c(OC)c(OC)c2)cc1OP(=O)([O-])[O-].[Na+].[Na+] [CA4P, combretastatin A4 disodium phosphate] . 780

---

test: Biodistribution of 14C-CA4P following topical administration of a gel; format: in vivo, New Zealand rabbits; settings: cornea; 10% topical gel, 50 ul
property_name: Cmax

Would you mind telling me what Cmax value was observed for COc1ccc(/C=C\c2cc(OC)c(OC)c(OC)c2)cc1OP(=O)([O-])[O-].[Na+].[Na+] [CA4P, combretastatin A4 disodium phosphate] ? 292 µM

---

experiment: Biodistribution of 14C-CA4P following periocular injection; format: in vivo, New Zealand rabbits; settings: sclera; 10 mg/ml periocular
property_name: Cmax (µM)
Supply the numeric figure in µM, leaving out any unit text.

# get_value(readout='Cmax', item= COc1ccc(/C=C\c2cc(OC)c(OC)c(OC)c2)cc1OP(=O)([O-])[O-].[Na+].[Na+] [CA4P, combretastatin A4 disodium phosphate] ) 280

---

test: Biodistribution of 14C-CA4P following topical administration of a gel; format: in vivo, New Zealand rabbits; details: cornea; 1% topical gel, 50 ul
property_name: Cmax (µM)
Dear colleague, please return just the value in µM, with no unit written.

Give the measured Cmax of COc1ccc(/C=C\c2cc(OC)c(OC)c(OC)c2)cc1OP(=O)([O-])[O-].[Na+].[Na+] [CA4P, combretastatin A4 disodium phosphate] . 82

---

test: Biodistribution of 14C-CA4P following topical administration of a gel; type: in vivo, New Zealand rabbits; conditions: plasma; 10% topical gel
property_name: Cmax (nM)
Entry rule: numbers only, all in nM.

Return reported Cmax; argument: COc1ccc(/C=C\c2cc(OC)c(OC)c(OC)c2)cc1OP(=O)([O-])[O-].[Na+].[Na+] [CA4P, combretastatin A4 disodium phosphate] 1630

---

experiment: Biodistribution of 14C-CA4P following topical administration of a gel; assay type: in vivo, New Zealand rabbits; conditions: choroid; 10% topical gel
property_name: Cmax (µM)
Number only, in µM; omit the unit.

Consider the molecule shown here: COc1ccc(/C=C\c2cc(OC)c(OC)c(OC)c2)cc1OP(=O)([O-])[O-].[Na+].[Na+] [CA4P, combretastatin A4 disodium phosphate] What is its recorded Cmax? 22.5

---

test: Biodistribution of 14C-CA4P following subconjunctival injection; format: in vivo, New Zealand rabbits; conditions: cornea; 10 mg/ml subconjunctival
property_name: Cmax (µM)
Report the figure in µM without appending any unit label.

What value of Cmax has been reported for the following compound? COc1ccc(/C=C\c2cc(OC)c(OC)c(OC)c2)cc1OP(=O)([O-])[O-].[Na+].[Na+] [CA4P, combretastatin A4 disodium phosphate] 143

---

test: Biodistribution of 14C-CA4P following subconjunctival injection; format: in vivo, New Zealand rabbits; conditions: plasma; 1 mg/ml subconjunctival
property_name: Cmax
Number plus unit, in that order.

// Cmax lookup, key: COc1ccc(/C=C\c2cc(OC)c(OC)c(OC)c2)cc1OP(=O)([O-])[O-].[Na+].[Na+] [CA4P, combretastatin A4 disodium phosphate] 25 nM

---

Test: Biodistribution of 14C-CA4P following sub-Tenon's injection
Type: in vivo, New Zealand rabbits
Settings: choroid; 10 mg/ml sub-Tenon's
Procedure: ^14C-CA4P (OXiGENE Inc., Watertown, Mass.) was resuspended in 100 ul volume of saline solution and injected with a 30 G needle into the right eyes of anesthesized male New Zealand rabbits (4 months old, 1.8-2.5 kg, n=3 per sample). Three different concentrations of ^14C-CA4P were tested (1, 10, 100 mg/ml) corresponding to doses of 1, 5, and 5 uCi of applied radioactivity respectively. A blank control group was also included. Rabbits were anaesthetized at 1, 6, 24, and 48 hours for blood sampling. […]
property_name: Cmax

Fill in the blank: the reported Cmax of COc1ccc(/C=C\c2cc(OC)c(OC)c(OC)c2)cc1OP(=O)([O-])[O-].[Na+].[Na+] [CA4P, combretastatin A4 disodium phosphate] is ____. 6.2 µM

---

assay: Biodistribution of 14C-CA4P following subconjunctival injection; type: in vivo, New Zealand rabbits; settings: plasma; 0.1 mg/ml subconjunctival
property_name: Cmax (nM)
Response body: numeric value in nM, unit text excluded.

# lookup: Cmax of COc1ccc(/C=C\c2cc(OC)c(OC)c(OC)c2)cc1OP(=O)([O-])[O-].[Na+].[Na+] [CA4P, combretastatin A4 disodium phosphate] 17

---

Assay: Biodistribution of 14C-CA4P following periocular injection
Format: in vivo, New Zealand rabbits
Conditions: choroid; 1 mg/ml periocular
Description: ^14C-CA4P (OXiGENE Inc., Watertown, Mass.) was resuspended in 100 ul volume of saline solution and injected with a 30 G needle into the right eyes of anesthesized male New Zealand rabbits (4 months old, 1.8-2.5 kg, n=3 per sample). Three different concentrations of ^14C-CA4P were tested (1, 10, 100 mg/ml) corresponding to doses of 1, 5, and 5 uCi of applied radioactivity respectively. A blank control group was also included. Rabbits were anaesthetized at 1, 6, 24, and 48 hours for blood sampling. […]
property_name: Cmax (µM)
// return numeric value only (unit: µM, not printed)

Request the reported Cmax associated with COc1ccc(/C=C\c2cc(OC)c(OC)c(OC)c2)cc1OP(=O)([O-])[O-].[Na+].[Na+] [CA4P, combretastatin A4 disodium phosphate] 14.3

---

assay: Biodistribution of 14C-CA4P following subconjunctival injection; type: in vivo, New Zealand rabbits; conditions: vitreous; 10 mg/ml subconjunctival
property_name: Cmax (nM)
Answer format: numeric, nM implied, no suffix.

Fill blank: measured Cmax of the compound COc1ccc(/C=C\c2cc(OC)c(OC)c(OC)c2)cc1OP(=O)([O-])[O-].[Na+].[Na+] [CA4P, combretastatin A4 disodium phosphate] is ____. 2100

---

test: Biodistribution of 14C-CA4P following topical administration of a gel; assay type: in vivo, New Zealand rabbits; details: plasma; 3% topical gel
property_name: Cmax
# output: numeric value plus its unit

Reported Cmax, compound COc1ccc(/C=C\c2cc(OC)c(OC)c(OC)c2)cc1OP(=O)([O-])[O-].[Na+].[Na+] [CA4P, combretastatin A4 disodium phosphate] : ____ 560 nM

---

assay: Biodistribution of 14C-CA4P following subconjunctival injection; assay type: in vivo, New Zealand rabbits; conditions: cornea; 1 mg/ml subconjunctival
property_name: Cmax
Reply with a number, then the unit it belongs to.

Data request, read-out Cmax, for COc1ccc(/C=C\c2cc(OC)c(OC)c(OC)c2)cc1OP(=O)([O-])[O-].[Na+].[Na+] [CA4P, combretastatin A4 disodium phosphate] 13 µM

---

test: Biodistribution of 14C-CA4P following topical administration of a solution formulation; format: in vivo, New Zealand rabbits; settings: retina; 3% topical solution
property_name: Cmax (nM)
All answers are understood in nM, so give the number only.

Please look up its Cmax: COc1ccc(/C=C\c2cc(OC)c(OC)c(OC)c2)cc1OP(=O)([O-])[O-].[Na+].[Na+] [CA4P, combretastatin A4 disodium phosphate] 390
